- procedure-details: NCI Yeast Anticancer Drug Screen. Data for the mlh1 rad18 strain (AID 175)
- test-context: S. cerevisiae mlh1 rad18 strain growth inhibition; at 50.0 µM; active compounds read high
Compounds without any hit were thinned out: in the full panel of roughly 79,000, 15% have a hit.
endpoint: growth inhibition (%)
# output: bare number, implied unit %

| compound | endpoint | measured-result |
| --- | --- | --- |
| CN=S(=O)(OC/C=C/COS(=O)(=NC)c1ccc(C)cc1)c1ccc(C)cc1 (configuration not stated) | growth inhibition | -26.3 |

Asked: Value lookup for growth inhibition; key = CCCN(CCC#N)C(=S)Nc1ccc(C)c(C)c1
Given back: -27.9

Asked: Consider next the compound Cc1ccc(Sc2cc([N+](=O)[O-])cc(Sc3ccc(C)cc3)c2Sc2ccc(C)cc2)cc1 in the same way.
Given back: -11.7

Asked: Consider next the compound Cc1nn(C(=O)c2ccc(Cl)cc2)c2c1C(c1ccco1)SC(N)=N2 (configuration not stated) in the same way.
Given back: -14.8

Asked: Consider next the compound c1ccc(CN2CCC3(N4CCOCC4)C(C2)N=NN3c2ccccc2)cc1 (configuration not stated) in the same way.
Given back: -14.2

Asked: Consider next the compound COC(=O)C1=CN=C(C(=O)OC)NN1 in the same way.
Given back: 3.15

Asked: Consider next the compound COc1ccc(/C=N/NC(=O)c2ccccc2NC(=O)c2ccccc2Cl)cc1 in the same way.
Given back: 24.7

Asked: Consider next the compound COC(=O)C1(C2(C(=O)OC)NC(C)=C(c3ccccc3)C(=O)O2)NC(C)=C(c2ccccc2)C(=O)O1 (configuration not stated) in the same way.
Given back: 15

Asked: Consider next the compound O=C(c1ccccc1)C(CBr)C(Br)c1ccccc1 (configuration not stated) in the same way.
Given back: 1.75

Asked: Consider next the compound CC(C)/C=C1\CCC(CN2CCCC2)C1=O (configuration not stated) in the same way.
Given back: 63.5

Asked: Consider next the compound NC(=O)C1CCN(S(=O)(=O)c2ccccc2)CC1 in the same way.
Given back: -18.4

Asked: Consider next the compound O=C(Cc1ccccc1)NCO in the same way.
Given back: 4.6

Asked: Consider next the compound O=C1C2C(C(=O)N1c1ccccc1)C1(c3cccnc3)NC(=O)C2(Cc2cccnc2)c2ccccc21 (configuration not stated) in the same way.
Given back: 13.5

Asked: Consider next the compound COC(=O)NC(=Nc1ccc(Oc2ccccc2)cc1NC=O)NC(=O)OC in the same way.
Given back: 11.5

Asked: Consider next the compound COC(=O)C(C)(C#N)/C(C)=C/C(C)C (configuration not stated) in the same way.
Given back: -33

Asked: Consider next the compound Cn1c(=O)c2[nH]c(SCc3cccnc3)nc2n(C)c1=O in the same way.
Given back: -10.6

====

- procedure-details: NCI Yeast Anticancer Drug Screen. Data for the mlh1 rad18 strain (AID 175)
- test-context: S. cerevisiae mlh1 rad18 strain growth inhibition; at 50.0 µM
This is part of a sample that, as a whole, favours compounds with a hit. Of some 79,000 tested, about 15% had one in any assay. Activity calls are given as the source filed them. No stated cut-off is given here; in the data, active means growth inhibition above about 70%; inactive means the rest.
Write down the outcome that applies. Available outcomes: true (1) (active), false (0) (inactive)

Example cases with answers are listed next.
| compound | category-label |
| --- | --- |
| O=C(NCCCN1CCCCCC1)C(c1ccccc1)C1CCCCC1 (stereo unspecified) | false (0) |
| CC(C(=O)n1c2ccccc2c2ccccc21)N(c1ccccc1)c1ccccc1 (stereo unspecified) | false (0) |
| COc1ccc2c(c1)CCN1CCCc3ccc(OC)cc3C21 (stereo unspecified) | false (0) |
| OCc1c(-c2ccccc2)oc(-c2ccccc2)c1CN1CCOCC1 | false (0) |
| C[N+](C)(C)C12CCCC1S(=O)(=O)C2 (stereo unspecified) | false (0) |

Asked: Any idea what this test logged for CCOc1cccc(-c2ccccc2)c1 ?
Given back: false (0)

Asked: Consider next the compound c1ccc(/C2=C(\c3ccccc3)CSSSSC2)cc1 in the same way.
Given back: true (1)

Asked: Consider next the compound CCN(CC)C(=O)N1CCN(c2ccccc2)CC1 in the same way.
Given back: false (0)

Asked: Consider next the compound Cc1csc(NNC(N)=O)n1 in the same way.
Given back: false (0)

Asked: Consider next the compound Cc1ccc(N=NC2=C3Sc4ccccc4N=C2N(c2ccc(Br)cc2)C(=S)N3c2ccc(Cl)cc2)cc1 in the same way.
Given back: false (0)

Asked: Consider next the compound CC(C#N)(CCl)OS(=O)(=O)CCCl (stereo unspecified) in the same way.
Given back: false (0)

Asked: Consider next the compound Cc1nc2sccc2c(=O)n1C in the same way.
Given back: false (0)

Asked: Consider next the compound O=COCc1ccc2c(c1)OCO2 in the same way.
Given back: false (0)

Asked: Consider next the compound CCOC(=O)Cc1cccnc1N in the same way.
Given back: false (0)

Asked: Consider next the compound CC1OCC2OC(C)OC(C(C3C(=O)CC(C)(C)CC3=O)C3C(=O)CC(C)(C)CC3=O)C2O1 (stereo unspecified) in the same way.
Given back: false (0)

Asked: Consider next the compound O=C1/C(=C2\CCc3ccccc32)Cc2ccccc21 in the same way.
Given back: false (0)

Asked: Consider next the compound CCN(CC)c1ccc(N=C2C=C(C(=O)Nc3ccc(S(C)(=O)=O)cc3)C(=O)c3ccccc32)c(C)c1 in the same way.
Given back: false (0)

Asked: Consider next the compound Cc1ccc(N=Nc2c(O)c(C(=O)O)cc3ccccc23)c(S(=O)(=O)O)c1 in the same way.
Given back: false (0)

Asked: Consider next the compound C[Si](C)(Cl)c1ccccc1 in the same way.
Given back: false (0)

====

- procedure-details: NCI Yeast Anticancer Drug Screen. Data for the mec2-1 strain (AID 157)
- test-context: S. cerevisiae mec2-1 strain, at 50.0 µM, active compounds read high
The panel holds about 79,000 compounds, 15% with a hit somewhere; the sample as a whole holds those more often.
endpoint: growth inhibition (%)
# output: bare number, implied unit %

| molecule | growth inhibition, % |
| --- | --- |
| CCOC1(c2ccccc2)NC(=O)NC1(OCC)c1ccccc1 (stereo not drawn) | 5.75 |
| Cc1ccc(Br)cc1C(=O)O | 2.25 |
| Cc1ccc2c(c1)SC(c1cc3c(cc1Br)OCO3)S2 (stereo not drawn) | -22.1 |

Asked: Value lookup for growth inhibition; key = O=C1OC(=O)c2c(Cl)c(Cl)c(Cl)c(Cl)c21
Given back: -0.15

Asked: Consider next the molecule CC(=O)OCC(OC(C)=O)C(OC(C)=O)C(OC(C)=O)c1cnn(-c2ccccc2)n1 (stereo not drawn) in the same way.
Given back: 12.7

Asked: Consider next the molecule COC(=O)/C=C1\C(=O)N(C(C)=O)c2ccccc21 in the same way.
Given back: 16.1

Asked: Consider next the molecule O=C1C=Cc2ccccc2/C1=C/c1nc(-c2ccc(Cl)cc2)oc1O in the same way.
Given back: 7.05

Asked: Consider next the molecule COc1cccc(-c2cc(=O)c3cc(OC)ccc3[nH]2)c1 in the same way.
Given back: -1.6

Asked: Consider next the molecule CCN(CC)CCCC(C)Nc1c2cc(OC)cc(C)c2nc2c(C)c(Cl)ccc12 (stereo not drawn) in the same way.
Given back: 50.6

Asked: Consider next the molecule COc1cccc(N)c1 in the same way.
Given back: -11.8

Asked: Consider next the molecule O=c1nc(Oc2ccccc2)nc2ncccn12 in the same way.
Given back: 26.1

Asked: Consider next the molecule CC(C)CCC(=O)C(C)C in the same way.
Given back: -9.55

====

- procedure-details: NCI Yeast Anticancer Drug Screen. Data for the cln2 rad14 strain (AID 165);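 note: 0% = growth equal to vehicle treated cultures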
- test-context: S. cerevisiae cln2 rad14 strain, at 50.0 µM, active compounds read high
The panel holds about 79,000 compounds, 15% with a hit somewhere; the sample as a whole holds those more often.
Parameter: growth inhibition. Scope: all listed entries.
# output: bare number, implied unit %

Worked set:
| compound | endpoint | measured-result |
| --- | --- | --- |
| CN(c1ccccc1)S(=O)(=O)c1ccc([N+](=O)[O-])cc1 | growth inhibition | -7.1 |
| CCOC(=O)NC(=O)c1cn(CCCCCCOC(=O)NCCCCCCNC(=O)OCCCCCCn2cc(C(=O)NC(=O)OCC)c(=O)[nH]c2=O)c(=O)[nH]c1=O | growth inhibition | 28.8 |

Asked: Value lookup for growth inhibition; key = O=C1C(OC(=O)c2ccccc2)=C(OC(=O)c2ccccc2)C(=O)C(OC(=O)c2ccccc2)=C1OC(=O)c1ccccc1
Given back: -22.8

Asked: Consider next the compound O=C(O)CC(Sc1ccccc1)c1ccccc1 (stereo not given) in the same way.
Given back: 32

Asked: Consider next the compound CN(C)CC(O)CNC(=O)Nc1ccccc1 (stereo not given) in the same way.
Given back: 0.35

====

- procedure-details: NCI Yeast Anticancer Drug Screen. Data for the rad50 strain (AID 155);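 note: 0% = growth of vehicle-only cultures of the same strain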
- test-context: S. cerevisiae rad50 strain growth inhibition; at 50.0 µM
This is part of a sample that, as a whole, favours compounds with a hit. Of some 79,000 tested, about 15% had one in any assay. Activity calls are given as the source filed them. No stated cut-off is given here; in the data, active means growth inhibition above about 70%; inactive means the rest.
Write down the outcome that applies. Available outcomes: true = active, false = inactive

| compound | category-label |
| --- | --- |
| Cc1ccc(NC(=O)COc2cc(Cl)c(Cl)cc2Cl)c([N+](=O)[O-])c1 | false |

Turning to the following compound.
Asked: Any idea what this test logged for CC(C)CCCC(C)C1CCC2C3C(O)CC4CCCCC4(C)C3CCC12C (stereo unspecified) ?
Given back: true

The reported measurements were obtained from PubChem BioAssay (NCI).
